# system: Prostate-specific antigen (Homo sapiens) (UniProt P07288)
# Sequence (whole entry): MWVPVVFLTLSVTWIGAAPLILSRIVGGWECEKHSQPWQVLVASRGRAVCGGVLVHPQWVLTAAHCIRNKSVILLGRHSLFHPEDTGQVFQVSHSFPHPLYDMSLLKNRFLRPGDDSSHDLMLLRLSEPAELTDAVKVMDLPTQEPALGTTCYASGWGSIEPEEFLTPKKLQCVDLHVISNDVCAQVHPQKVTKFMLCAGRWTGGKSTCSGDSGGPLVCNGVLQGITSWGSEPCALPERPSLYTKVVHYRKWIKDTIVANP
# runDescription: Stimulation of KLK3 (unknown origin) using S-2586 as substrate at 14 uM after 30 mins by spectrophotometric assay relative to control
Bridge positions count the residues as written; N and C are the ends. Peptide text beside a SMILES is read from it.

compound: CC(C)C[C@@H]1NC(=O)[C@H](Cc2ccc(O)cc2)NC(=O)[C@H](CC(=O)O)NC(=O)[C@H](Cc2ccc(O)cc2)NC(=O)[C@H](CC(N)=O)NC(=O)[C@H](Cc2cnc[nH]2)NC(=O)[C@H](C)NC(=O)[C@H](Cc2ccccc2)NC(=O)[C@H](C(C)C)NC(=O)CC/C=C/C[C@@H](C(=O)O)NC(=O)[C@H](C(C)C)NC1=O
scaleUnit: %
Activity: 160
--
compound: CC(C)C[C@@H]1NC(=O)[C@H](Cc2ccc(O)cc2)NC(=O)[C@H](CC(=O)O)NC(=O)[C@H](Cc2ccc(O)cc2)NC(=O)[C@H](CC(N)=O)NC(=O)[C@H](Cc2cnc[nH]2)NC(=O)[C@H](C)NC(=O)[C@H](Cc2ccccc2)NC(=O)[C@H](C(C)C)NC(=O)[C@@H](N)CSSC[C@@H](C(N)=O)NC(=O)[C@H](C(C)C)NC1=O (H-CVFAHNYDYLVC-NH2; disulfide 1-12)
scaleUnit: %
Activity: 360
--
compound: CC(C)C[C@@H]1NC(=O)[C@H](Cc2ccc(O)cc2)NC(=O)[C@H](CC(=O)O)NC(=O)[C@H](Cc2ccc(O)cc2)NC(=O)[C@H](CC(N)=O)NC(=O)[C@H](Cc2cnc[nH]2)NC(=O)[C@H](C)NC(=O)[C@H](Cc2ccccc2)NC(=O)[C@H](C(C)C)NC(=O)[C@@H](N)CCCC[C@@H](C(=O)O)NC(=O)[C@H](C(C)C)NC1=O
scaleUnit: %
Activity: 250

====

# system: Prostate-specific antigen (Homo sapiens)
# Sequence (whole entry): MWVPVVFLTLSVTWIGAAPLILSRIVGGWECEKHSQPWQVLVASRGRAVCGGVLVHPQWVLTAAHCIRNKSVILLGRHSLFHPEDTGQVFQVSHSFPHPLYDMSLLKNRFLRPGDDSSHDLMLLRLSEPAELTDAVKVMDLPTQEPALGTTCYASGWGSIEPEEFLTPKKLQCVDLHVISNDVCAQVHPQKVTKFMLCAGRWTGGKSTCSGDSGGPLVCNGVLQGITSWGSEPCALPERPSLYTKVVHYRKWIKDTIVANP
# runDescription: Stimulation of KLK3 (unknown origin) using S-2586 as substrate at 14 uM after 30 mins by spectrophotometric assay relative to control
Bridge positions count the residues as written; N and C are the ends. Square brackets hold non-standard residues; d marks the D form. Peptide text beside a SMILES is read from it. Asu = N[C@@H](CCCCCC(=O)O)C(=O)O; AllylGly = C=CC[C@H](N)C(=O)O
// reported Activity for each item listed
quantityMeasured: Activity (%)

compound: CC(C)C[C@@H]1NC(=O)[C@H](Cc2ccc(O)cc2)NC(=O)[C@H](CC(=O)O)NC(=O)[C@H](Cc2ccc(O)cc2)NC(=O)[C@H](CC(N)=O)NC(=O)[C@H](Cc2cnc[nH]2)NC(=O)[C@H](C)NC(=O)[C@H](Cc2ccccc2)NC(=O)[C@H](C(C)C)NC(=O)[C@@H](N)C/C=C/C[C@@H](C(=O)O)NC(=O)[C@H](C(C)C)NC1=O (H-[AllylGly]VFAHNYDYLV[AllylGly]-OH; staple (E) 1-12)
scaleUnit: %
assayResult: 160

compound: CC(C)C[C@@H]1NC(=O)[C@H](Cc2ccc(O)cc2)NC(=O)[C@H](CC(=O)O)NC(=O)[C@H](Cc2ccc(O)cc2)NC(=O)[C@H](CC(N)=O)NC(=O)[C@H](Cc2cnc[nH]2)NC(=O)[C@H](C)NC(=O)[C@H](Cc2ccccc2)NC(=O)[C@H](C(C)C)NC(=O)CCCCC[C@@H](C(=O)O)NC(=O)[C@H](C(C)C)NC1=O (VFAHNYDYLV[Asu]-OH; lactam N-11)
scaleUnit: %
assayResult: 170
